// reported IC50 for each item listed
Molecular target: human HSV DNA polymerase UL30 (Human herpesvirus 1 (strain 17) (HHV-1) (Human herpes simplex virus 1))
Assay: HSV polymerase biochemical assay (molecular beacon-based)
Lab book: enter the figure in µM, no units written.

Here are 2 compounds together with their reported answers.
COMPOUND | IC50, µM
CS(=O)(=O)C1(CN2CCn3c(c(C4CC4)cc(C(=O)NCc4ccc(Cl)cc4)c3=O)C2=O)CC1 [Example 132] | 0.138
CS(=O)(=O)C1(CN2CCn3c(ccc(C(=O)NCc4ccc(Cl)c(F)c4)c3=O)C2=O)CC1 [Example 41] | 0.123

// IC50 lookup, key: N#Cc1ccc(CNC(=O)c2ccc3n(c2=O)CCN(CC2(S(=O)(=O)N4CCC4)CC2)C3=O)cc1 [Example 88-2]
0.0735
